Test system: Severe acute respiratory syndrome coronavirus 2
Assay: Binding affinity to 5'-CY5-labelled SARS-CoV-2 frameshift element RNA by MST analysis
The source made the active and inactive calls. The calls are words filed in the database; no cut-off is given here.
parameter measured: Activity

Record excerpt, results attached:
{"columns": ["structure smiles", "assay system", "Activity"],
 "data": [
  ["COc1ccc(-c2nc(NCCN3CCOCC3)c3ccc(-c4cn[nH]c4)cc3n2)cc1", "Severe acute respiratory syndrome coronavirus 2", "Active"],
  ["COc1ccc(-c2nc(NCCN3CCOCC3)c3ccc([N+](=O)[O-])cc3n2)cc1", "Severe acute respiratory syndrome coronavirus 2", "inactive"],
  ["O=[N+]([O-])c1ccc(-c2nc(NCCN3CCOCC3)c3ccccc3n2)cc1", "Severe acute respiratory syndrome coronavirus 2", "inactive"],
  ["COc1ccc(-c2nc(NCCN3CCOCC3)c3cccc(OC)c3n2)cc1", "Severe acute respiratory syndrome coronavirus 2", "inactive"],
  ["COc1ccc(-c2nc(NCCN3CCOCC3)c3cc(C(F)(F)F)ccc3n2)cc1", "Severe acute respiratory syndrome coronavirus 2", "Active"],
  ["COc1ccc(-c2nc(N3CC(N4CCOCC4)C3)c3ccccc3n2)cc1", "Severe acute respiratory syndrome coronavirus 2", "inactive"]
]}

Now look at this entry.
stdin: // returns reported Activity for input `COc1ccc(-c2nc(NCCN3CCOCC3)c3cc(-c4ccc(N5CCOCC5)c(C)c4)ccc3n2)cc1`
stdout: inactive
